test system: CEM cells HIV-1 protection, formazan growth assay; assay: NCI AIDS Antiviral Assay; conditions: measured here: growth of uninfected CEM cells
Record form. Attribute: pIC50. Fill in for each entry.
One number for each entry, as −log10 of the molar value.

Please report the recorded pIC50 for `Cc1c2cc(Br)ccc2nc(CCl)[n+]1[O-]` .
6.01

Hey, quick one: what's pIC50 for each of these?
1. CC(=O)N(C(C)=O)c1cc2c3c(c1)CCCN3CCC2
2. CCCCCCCCOC1C(O)C(O)C(O)C(O)C12CO2 (stereo unspecified)
3. O=C1N=CC2(N=N2)C(=O)N1
4. CC(=O)Nc1cc(N=Nc2ccc(N=Nc3ccc(NC(=O)c4ccc(N)cc4)cc3C)cc2C)c(S(=O)(=O)O)cc1N=Nc1cccc(C(=O)O)c1
5. S=c1[nH]c2ccccc2[nH]c1=S
6. CCN(CC)C(=S)N/N=C/c1ccccn1
7. C#CC(O)/C=C/C(O)CCCC(O)CC#CC(O)C#CCCCCC(O)/C=C/CCCC(=O)CCCCCCCCCCCCCCCC(O)C(O)C#CC(=O)O (stereo unspecified)

3.74
4.12
4.81
3.77
4.58
8.44
4.55

I have 8 compounds here; please give me pIC50 for each one.
1. CCOC(=O)c1nc2c(Cl)c3ncccc3cc2[nH]c1=O
2. C/C(=N/NC(=S)Nc1ccccc1Cl)c1ccccn1
3. C=Cc1c(Cl)nc(C)c(C)c1-c1ccc(OC)c(OC)c1OCc1ccccc1
4. O=C1N=C(SC(SC2=NC(=O)C3(NN2)c2ccccc2-c2ccccc23)=C(SC2=NC(=O)C3(NN2)c2ccccc2-c2ccccc23)SC2=NC(=O)C3(NN2)c2ccccc2-c2ccccc23)NNC12c1ccccc1-c1ccccc12
5. CCN(CC)c1ccc2cc(C(=O)NCc3ccccc3)c(=N)oc2c1
6. CCCCCCCn1ccnc1NCCCCCCCCCCNc1nccn1CCCCCCC
7. O=C(CSc1nnc(-c2ccc(N=Cc3ccc(Cl)cc3)cc2)o1)Nc1ccc(Cl)cc1Cl
8. CCOC(=O)CCCN(c1[nH]c(C)c(C)c1C#N)S(=O)(=O)c1ccc(C)cc1

[4.92, 7.43, 4.60, 4.37, 4.96, 5.00, 4.60, 4.09]

Please go through the list and note pIC50 for each compound.
1. Oc1cc(Cc2ccccc2)c(Cc2ccccc2)cc1O
2. CC(=O)C1=CC=C/C1=N\Nc1ccccc1
3. CC(=O)[C@H]1CC[C@H]2[C@@H]3C=CC4=CC(=O)CC[C@@]4(C)[C@@H]3CC[C@]12C

4.46
4.96
4.10

Return reported pIC50 values for all items listed beneath this line.
1. C[C@@H]1O[C@@H](O[C@H]2CC[C@]3(C=O)[C@H]4CC[C@]5(C)[C@@H](c6ccc(=O)oc6)CC[C@]5(O)[C@@H]4CC[C@]3(O)C2)[C@H](O)[C@H](O)[C@H]1O[C@@H]1O[C@H](CO)[C@@H](O)[C@H](O)[C@H]1O
2. CCOc1ccc2c(ccc(/C=C\c3cc(C)c4cccnc4c3O)[n+]2C)c1

[8.42, 6.02]
